Below, each entry is listed with its recorded viability, T/C.
Test system: MDA-MB-231 complex spheroid viability
assay remarks: Anticancer human tumor MDA-MB-231/ATCC cell line growth inhibition;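 further: drug exposure lasted 7 days starting on day 3 of spheroid growth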
conditions used: second compound 0.316 µM; first compound 0.000316 µM; stronger effect = lower value

# compound, viability, T/C, %
records = [
    ("CC[C@@]1(O)C(=O)OCc2c1cc1n(c2=O)Cc2cc3c(CN(C)C)c(O)ccc3nc2-1 + NC1CC1c1ccc(-c2cccc(O)c2)cc1", 61.8),
    ("CC[C@@]1(O)C(=O)OCc2c1cc1n(c2=O)Cc2cc3c(CN(C)C)c(O)ccc3nc2-1 + NC1CCC(NC2CC2c2ccccc2)CC1", 87.6),
    ("CC(C)CC(NC(=O)CNC(=O)c1cc(Cl)ccc1Cl)B1OC(=O)CC(CC(=O)O)(C(=O)O)O1 (stereo not drawn) + NC1CCC(NC2CC2c2ccccc2)CC1", 98.9),
    ("Cn1ncnc1C1c2n[nH]c(=O)c3cc(F)cc(c23)NC1c1ccc(F)cc1 (stereo not drawn) + NC1CCC(NC2CC2c2ccccc2)CC1", 95.4),
    ("CC(C)CC(NC(=O)C(Cc1ccccc1)NC(=O)c1cnccn1)B(O)O (stereo not drawn) + NC1CCC(NC2CC2c2ccccc2)CC1", 107),
    ("CC(C)CC(NC(=O)C(Cc1ccccc1)NC(=O)c1cnccn1)B(O)O (stereo not drawn) + NC1CC1c1ccc(-c2cccc(O)c2)cc1", 31.8),
    ("Cn1ncnc1C1c2n[nH]c(=O)c3cc(F)cc(c23)NC1c1ccc(F)cc1 (stereo not drawn) + NC1CC1c1ccc(-c2cccc(O)c2)cc1", 64.4),
    ("CC(C)CC(NC(=O)CNC(=O)c1cc(Cl)ccc1Cl)B1OC(=O)CC(CC(=O)O)(C(=O)O)O1 (stereo not drawn) + NC1CC1c1ccc(-c2cccc(O)c2)cc1", 67.8),
]

====

Below, each entry is listed with its recorded viability, T/C.
System: MDA-MB-231 complex spheroid viability
assay remarks: Anticancer human tumor MDA-MB-231/ATCC cell line growth inhibition;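 further: drug exposure lasted 7 days starting on day 3 of spheroid growth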
conditions used: second compound 1 µM; first compound 10 µM; stronger effect = lower value
assay endpoint: viability, T/C (%)

# molecule, unit of measurement, meas value
measured = [
    ("CC1COCCN1c1cc(C2(S(C)(=N)=O)CC2)nc(-c2ccnc3[nH]ccc23)n1 (centres undefined) + NC1CCC(NC2CC2c2ccccc2)CC1", "%", 30.3),
    ("O=C(c1cc(Cc2n[nH]c(=O)c3ccccc23)ccc1F)N1CCN(C(=O)C2CC2)CC1 + NC1CC1c1ccc(-c2cccc(O)c2)cc1", "%", 21.1),
    ("COc1ccc([C@@H](O)c2cc(-c3ncnc4cc(N5CCOCC5)ccc34)c(F)cc2Cl)nn1 + NC1CCC(NC2CC2c2ccccc2)CC1", "%", 23.8),
    ("CC1(C)CCC(CN2CCN(c3ccc(C(=O)NS(=O)(=O)c4ccc(NCC5CCOCC5)c([N+](=O)[O-])c4)c(Oc4cnc5[nH]ccc5c4)c3)CC2)=C(c2ccc(Cl)cc2)C1 + NC1CCC(NC2CC2c2ccccc2)CC1", "%", 23.5),
]

====

Test system: MDA-MB-231 complex spheroid viability
assay remarks: Anticancer human tumor MDA-MB-231/ATCC cell line growth inhibition;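 further: drug exposure lasted 7 days starting on day 3 of spheroid growth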
conditions used: second compound 3.16 µM; first compound 0.3 µM; stronger effect = lower value
Below, each entry is listed with its recorded viability, T/C.

# molecule, unit of measurement, viability, T/C
rows = [
    ("CCN(c1cc(-c2ccc(CN3CCOCC3)cc2)cc(C(=O)NCc2c(C)cc(C)[nH]c2=O)c1C)C1CCOCC1 + NC1CCC(NC2CC2c2ccccc2)CC1", "%", 66),
    ("Nc1ncn(C2CC(O)C(CO)S2)c(=O)n1 (centres undefined) + NC1CCC(NC2CC2c2ccccc2)CC1", "%", 12),
    ("CCc1c2c(nc3ccc(O)cc13)-c1cc3c(c(=O)n1C2)COC(=O)[C@]3(O)CC + NC1CCC(NC2CC2c2ccccc2)CC1", "%", 1.91),
    ("Nc1ccn(C2OC(CO)C(O)C2(F)F)c(=O)n1 (centres undefined) + NC1CC1c1ccc(-c2cccc(O)c2)cc1", "%", 11.3),
]
